- Measured target: Signal transducer and activator of transcription 3 (Homo sapiens) (UniProt P40763)
- Sequence (P40763 whole entry, looked up): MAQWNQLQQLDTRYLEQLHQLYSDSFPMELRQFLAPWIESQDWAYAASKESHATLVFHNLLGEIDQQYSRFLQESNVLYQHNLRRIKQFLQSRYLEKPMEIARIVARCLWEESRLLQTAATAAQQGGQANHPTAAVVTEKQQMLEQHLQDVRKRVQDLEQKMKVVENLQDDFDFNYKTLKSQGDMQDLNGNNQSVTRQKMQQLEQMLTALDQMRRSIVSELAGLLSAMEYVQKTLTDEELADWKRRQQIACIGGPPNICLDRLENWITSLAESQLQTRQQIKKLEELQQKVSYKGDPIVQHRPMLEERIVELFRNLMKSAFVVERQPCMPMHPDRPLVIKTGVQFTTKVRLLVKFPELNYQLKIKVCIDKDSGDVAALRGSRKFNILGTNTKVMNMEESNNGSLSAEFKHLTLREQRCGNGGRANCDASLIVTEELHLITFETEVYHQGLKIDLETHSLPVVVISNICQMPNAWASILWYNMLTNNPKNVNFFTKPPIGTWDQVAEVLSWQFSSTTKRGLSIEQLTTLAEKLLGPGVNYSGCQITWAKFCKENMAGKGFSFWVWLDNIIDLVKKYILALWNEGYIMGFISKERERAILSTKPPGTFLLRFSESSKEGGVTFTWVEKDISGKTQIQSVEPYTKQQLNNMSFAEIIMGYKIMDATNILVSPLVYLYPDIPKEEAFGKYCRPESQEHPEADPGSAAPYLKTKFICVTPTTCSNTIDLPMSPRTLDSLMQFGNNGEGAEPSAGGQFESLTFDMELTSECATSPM
- Measurement protocol: ATG_STAT3_CIS: Attagene CIS-FACTORIAL HepG2 Assay for human Signal Transducer and Activator of Transcription 3 (STAT3) (AID 2282963)
- Measurement context: HepG2, Attagene cis-factorial STAT3 reporter transcription; actives raise or lower the signal
The source made the active and inactive calls. The calls were made as follows: active = hit-call score of the fitted dose curve at least 0.9, where 1 is the maximum; inactive = score below 0.9.
Allowed answers: active, inactive

Please review the entries below; each comes with its answer.
- Molecule: "CCO[Si](CCCN)(OCC)OCC"
  Measured target: "Signal transducer and activator of transcription 3 (Homo sapiens) (UniProt P40763)"
  Qualitative label: "inactive"
- Molecule: "CN(C)CCCN1c2ccccc2CCc2ccc(Cl)cc21"
  Measured target: "Signal transducer and activator of transcription 3 (Homo sapiens) (UniProt P40763)"
  Qualitative label: "inactive"
- Molecule: "O=[N+]([O-])c1ccc2nc[nH]c2c1"
  Measured target: "Signal transducer and activator of transcription 3 (Homo sapiens) (UniProt P40763)"
  Qualitative label: "inactive"

Dear all, I need the recorded test outcome for C=CCOCC(CC)(CO)COCC=C , thank you. inactive

Dear all, I need the recorded test outcome for CCCCCC[C@@H](O)C/C=C\CCCCCCCC(=O)O , thank you. active

Dear all, I need the recorded test outcome for CC[N+](CC)(CC(=O)Nc1c(C)cccc1C)Cc1ccccc1 , thank you. inactive

Dear all, I need the recorded test outcome for CCCCCCCCCCCCCC , thank you. inactive

Dear all, I need the recorded test outcome for CCCCCCCCCC/C=C/C1CC(=O)OC1=O (stereo not drawn) , thank you. inactive

* * *

- Measured target: CCAAT/enhancer-binding protein beta (Homo sapiens)
- Measurement protocol: ATG_C_EBP_CIS: Attagene CIS-FACTORIAL HepG2 Assay for human CCAAT/Enhancer Binding Protein (C/EBP) beta (AID 2282927)
- Measurement context: HepG2 Attagene cis-factorial transcription factor reporter; actives raise or lower the signal
Active and inactive are the calls of the source. How the source made its calls: active means hit-call score of the fitted dose curve at least 0.9, where 1 is the maximum; inactive means score below 0.9.
Allowed answers: yes = active, no = inactive

- Molecule: "CCCCCCCC#N"
  Measured target: "CCAAT/enhancer-binding protein beta (Homo sapiens)"
  Qualitative label: "no"
- Molecule: "Nc1nnc(-c2ccc([N+](=O)[O-])o2)o1"
  Measured target: "CCAAT/enhancer-binding protein beta (Homo sapiens)"
  Qualitative label: "no"
- Molecule: "CCCCOC(=O)COc1ccc(Cl)cc1Cl"
  Measured target: "CCAAT/enhancer-binding protein beta (Homo sapiens)"
  Qualitative label: "no"
- Molecule: "Cc1cc(-n2nc3ccc(Cl)cc3n2)c(O)c(C(C)(C)C)c1"
  Measured target: "CCAAT/enhancer-binding protein beta (Homo sapiens)"
  Qualitative label: "no"
- Molecule: "COC(=O)/C=C\\C(=O)OC"
  Measured target: "CCAAT/enhancer-binding protein beta (Homo sapiens)"
  Qualitative label: "no"

Dear all, I need the recorded test outcome for CC[N+](CC)(CC(=O)Nc1c(C)cccc1C)Cc1ccccc1 , thank you. no

Dear all, I need the recorded test outcome for CCCCCCC1CCC(=O)O1 (stereo not given) , thank you. no

Dear all, I need the recorded test outcome for CCCCCCC(O)CCCCCCCCCCC(=O)OC (stereo not given) , thank you. no

Dear all, I need the recorded test outcome for CCCCCCCCCC/C=C/C1CC(=O)OC1=O (stereo not given) , thank you. no

Dear all, I need the recorded test outcome for C=C(C)C(=O)OCCCCCC , thank you. no

Dear all, I need the recorded test outcome for CCC(C)=NO , thank you. no
